# Test system: HL-60
# ASSAY NAME: NCI tumour cell line growth inhibition, 48 h
Calls of active or inactive are those of the source. Cut-off read from the data, not from the text of the source: active = GI50 up to about 1.1 µM and inactive = higher.
Returns: one label drawn from True = active, False = inactive

O=C(CC(c1ccccc1)c1c(O)c2ccccc2oc1=O)c1ccccc1 (configuration not stated)	False
COc1ccc(NC2=CC(=O)C(=O)c3ccccc32)nn1	True
COc1ccc2c(c1)[n+]([O-])c(/C(C)=N/NC(N)=S)c(C)[n+]2[O-]	False

Query string: So what was the verdict on CCOC(=O)Cn1c(=O)c2nc(SC)sc2n(CC)c1=S in this test?
Result string: False

Query string: What is the recorded call for this compound in the test? CC(C)=CCC(O)C1=CC(=O)c2c(O)ccc(O)c2C1=O (configuration not stated)
Result string: True

Query string: Each compound tested received a call. Report the one for Cc1cc(Br)c(N2C3=C(CC4=C2CCCC4=O)C(=O)CCC3)c(Br)c1 .
Result string: False

Query string: What did this assay record as the result for COc1ccc2c(NCCCCCCNc3c4ccccc4nc4cc(OC)ccc34)c3ccccc3nc2c1 ?
Result string: True

Query string: Per the records of this test, what outcome belongs to Cc1ccc(Oc2ccc(C)cc2N)cc1 ?
Result string: False

Query string: Which outcome was assigned to N#CSC#Cc1ccc(C#CSC#N)cc1 in this test?
Result string: False

Query string: Which outcome was assigned to CC1=C(C)C(=O)c2c(cc3ccccn23)C1=O in this test?
Result string: False

Query string: GET /call?item= Cc1ccc(C(=O)CCl)o1 returns the recorded outcome of this test.
Result string: False

Query string: In this assay, the call recorded for Cc1cc(=O)oc2cc(OC(=O)Nc3ccccc3)ccc12 was what?
Result string: False

Query string: Hello, I am checking results. What call was entered for C[C@]12CC[C@H]3[C@@H](CCC4=C[C@@H](OC5OCC(OC6OC(CO)C(O)C(O)C6O)C(O)C5O)CC[C@@]43C=O)[C@@]1(O)CCC2C1=CC(=O)OC1 (some centres not stated) ?
Result string: True

Query string: Can you look up the reported call for CN(NC(=O)c1ccco1)C1=NCCN1 for me?
Result string: False

Query string: Could you please tell me the result logged for Oc1cc(-c2ccccn2)nc2cccc(F)c12 in this assay?
Result string: False

Query string: Hi, sorry to bother you, what did the test record for CCCN1CC=CCC1 ?
Result string: False

Query string: Assay result, entry CC(=O)c1ccc2c(c1)CC1(C2)Cc2cc3c(c(C(=O)O)c2C1)CCC3 (configuration not stated) — outcome?
Result string: False

###

Listing: GI50 of selected compounds
# System: K562
# ASSAY NAME: NCI tumour cell line growth inhibition, 48 h
The source made the active and inactive calls. Rule as the data show it: active = GI50 up to about 1.1 µM and inactive = higher.

The examples below pair each entry with its known result.
COc1ccc(CC2Cc3ccccc3CCN2)cc1OC (stereo unspecified)	20 µM (inactive)
CN1CCC[N+](C)=C1c1ccccc1	> 100 µM (inactive)
OCC12C=CC(C1)c1ccccc12 (stereo unspecified)	> 100 µM (inactive)
CC(C)c1cccc(C(C)C)c1NC(=O)C(=O)C1CCC2=C(Sc3ccccc3N2)C1=O (stereo unspecified)	34.9 µM (inactive)
Cc1cc(C)nc(NS(=O)(=O)c2ccc(Nc3c4ccccc4nc4c(C(=O)Nc5ccc(S(=O)(=O)Nc6cc(C)on6)cc5)cccc34)cc2)n1	23.2 µM (inactive)

Query string: Identify the reported GI50 for the following entry. O=S(O)c1cc(Cl)c(O)c(Cl)c1
Result string: > 100 µM (inactive)

Query string: Could you please provide reported GI50 for CC1=NN(c2ccccc2)C(=O)C1=C1SCCS1 ? Thanks!
Result string: 43.6 µM (inactive)

Query string: Note down GI50 recorded for COc1ccc(Nc2[nH]c(C(C)=O)c(N)c2C(=S)Nc2ccccc2)cc1
Result string: 45.9 µM (inactive)
